From: ChEMBL document CHEMBL1201862

system: M19-MEL; experiment: NCI tumour cell line growth inhibition, 48 h
The source made the active and inactive calls. Cut-off read from the data, not from the text of the source: active = GI50 up to about 1.1 µM and inactive = higher.
metric: GI50

Cn1ccnc1C(O)(c1nccn1C)c1nccn1C ... > 100 µM (inactive)
C=CCOC(=O)C1CCC(=O)N1C(=O)C(Cl)Cl (stereo not given) ... > 100 µM (inactive)
COc1ccc(C2Oc3c(cc(O)c(OC)c3C)[C@@H]2C)cc1OC (stereo not given in full) ... 86.1 µM (inactive)
COC1=CC(=Nc2c(Cl)cc(Cl)cc2OC(=O)c2ccc([N+](=O)[O-])cc2)C=C(OC)C1=O ... 3.41 µM (inactive)
Cc1ccn2c(c1)nc1nc3ccccc3nc12 ... > 100 µM (inactive)
Cc1cc(NS(=O)(=O)c2ccc(NC(=O)c3ccc(Cl)c4c(Nc5ccc(S(N)(=O)=O)cc5)c5ccccc5nc34)cc2)no1 ... 20 µM (inactive)
COc1cccc2c1C(=O)c1c(O)c3c(c(O)c1C2=O)C[C@@](O)(C(C)O)C[C@@H]3OC1CC(N)C(O)C(C)O1 (stereo not given in full) ... 1.16 µM (inactive)
Cc1c(/C=N/NC(=O)c2ccccc2)c(=O)n(-c2ccccc2)n1C ... > 100 µM (inactive)
Oc1cc(-c2ccc[nH]2)nc2cc3c(cc12)OCO3 ... 39 µM (inactive)
Cc1c2cc[n+](C)c(C)c2cc2c1[nH]c1ccccc12 ... 3.44 µM (inactive)
COc1ccc(C2C(C)C(=O)C(C)C(c3ccc(OC)cc3)N2N=O)cc1 (stereo not given) ... > 750 µM (inactive)
O=C(CC1(O)C(=O)Nc2c(Cl)cc(Cl)cc21)c1ccccc1 (stereo not given) ... 31.6 µM (inactive)
CC(C)C1NC(=O)CC(c2ccccc2)N(N=O)C1c1ccccc1 (stereo not given) ... > 100 µM (inactive)
C=CCC(C)(C(=O)NCCC)C(=O)c1ccccc1O (stereo not given) ... > 100 µM (inactive)
CC(=O)Nc1ccccc1-c1cnc2ccccc2n1 ... > 100 µM (inactive)
C[n+]1c(Cl)cn2c3nc4ccccc4nc3c([O-])c(C#N)c21 ... < 0.01 µM (active)
CC(C)=C1CCC(CN2CCOCC2)C1=O (stereo not given) ... 22.1 µM (inactive)
C/N=C1\CC2c3cc(OC)c(OC)cc3CCN2C2=C1C(=O)CC(C)(C)C2 (stereo not given) ... > 100 µM (inactive)
CO[C@H]1C[C@@H]2CC[C@@H](C)[C@@](O)(O2)C(=O)C(=O)N2CCCC[C@H]2C(=O)O[C@H]([C@H](C)C[C@@H]2CC[C@@H](O)[C@H](OC)C2)CC(=O)[C@H](C)C=C(C)[C@@H](O)[C@@H](OC)C(=O)[C@H](C)C[C@H](C)/C=C/C=C/C=C1C ... 0.1 µM (active)
CCOc1ccccc1/N=C(/NC(=O)CC)SC ... > 10 µM (inactive)
